The reported measurements were obtained from the supplement of paper PMC6555819.

tested on: VDR:RXRa (NR concentration 270 nM, RXRa partner concentration 90 nM); assay: PBM binding z-score (relative to random genomic background probes); higher = stronger binding; sequences stand for … in GC…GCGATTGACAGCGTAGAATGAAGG
Mark 1 (yes) for reported PBM binding z-score of 4 or greater; mark 0 (no) for anything smaller.

Please review the entries below; each comes with its answer.
> print(dat)
                     polymer.sequence  class.assignment
1  TGTATGAGGTTAAAGATCAGGGAACGTGGCGTCG            0 (no)
2  CAAAATAGGTCACAGAGGTCAAAGTCCGTGCGTA           1 (yes)
3  TGTCAAAGTTCAAAGGTGACGTAAGTATCCACAC           1 (yes)

Textbook exercise: given the entry CCGAGTAGGTTACTAGGGGGCATTCAGTGCGAAT , state whether its PBM binding z-score is greater than or equal to 4.
1 (yes)

Textbook exercise: given the entry CCTAGCAGGCCAATCTAGGTCACTCAAGGCTTGA , state whether its PBM binding z-score is greater than or equal to 4.
0 (no)

Textbook exercise: given the entry CCGAGGAGGTTACGAGGGGGCATTCAGTGCGAAT , state whether its PBM binding z-score is greater than or equal to 4.
1 (yes)

Textbook exercise: given the entry CAAACTAGGTCACTAAAGGTCAAAGTCGAATGAC , state whether its PBM binding z-score is greater than or equal to 4.
1 (yes)

* * *

PBM binding z-score values for the sequences below.
test system: LXRa:RXRa (NR concentration 270 nM, RXRa partner concentration 90 nM); assay: PBM binding z-score (relative to random genomic background probes); higher = stronger binding; sequences stand for … in GC…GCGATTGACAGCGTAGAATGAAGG
Just the number, please.

Reported PBM binding z-score, sequence TCTGCTAGGTCAACGATGGTCAGTTAATCTGCTA : ____
2.65

Reported PBM binding z-score, sequence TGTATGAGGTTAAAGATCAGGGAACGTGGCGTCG : ____
3.09

Reported PBM binding z-score, sequence AGTCAAAGTTCAGGACGAGGTAACGTTAAGCACG : ____
3.74

Reported PBM binding z-score, sequence AGAATGAGGTCAAGATCAGGGAAACAGAATACAT : ____
5.9

Reported PBM binding z-score, sequence CGAACTAGGTCATCCAGGACCGTGAATACATTGA : ____
2.19

* * *

test system: PXR homodimer (NR concentration 270 nM); experiment: PBM binding z-score (relative to random genomic background probes); higher = stronger binding; sequences stand for … in GC…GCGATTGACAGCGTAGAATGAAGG
Result type: PBM binding z-score

Known PBM binding z-score results, listed for orientation:
> print(dat)
                     polymer.sequence  assay.value
1  TGTCAAAGTTCAAAGGTCACGTAAGTATCCACAC         5.82
2  AGTCAAAGTTTATCTAGGTAACGTAAGATATGCT        0.675
3  CGTCCAAGGTCATAGGAGGTCAATGAAGACAGAT         6.06
4  ATATGTAGGTTAAAGGTCATTCAGGTTGGTTCGC         7.91

Please look at the following sequence next.
Reported PBM binding z-score, sequence CCTACTGGACCAAGGTCATTGATCAGTCAAAGCA : ____
1.96

* * *

tested on: VDR homodimer (NR concentration 270 nM); assay: PBM binding z-score (relative to random genomic background probes); higher = stronger binding; sequences stand for … in GC…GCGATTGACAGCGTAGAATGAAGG
Mark 1 (yes) for reported PBM binding z-score of 2 or greater; mark 0 (no) for anything smaller.

> print(dat)
                     polymer.sequence  class.assignment
1  CAAACGAGGTCAAGAGGTCAAAGTCCGCTTCCCG           1 (yes)

Alright, here's another sequence for you.
Textbook exercise: given the entry CCAACTAGGTCAAAGGACAGTGAAAGGCGACGTA , state whether its PBM binding z-score is greater than or equal to 2.
0 (no)

* * *

test system: PPARg DBDmut:RXRa IVT, anti-PPARg (DBD mutation: PPARg1 K132A/R137A, NR concentration 270 nM, RXRa partner concentration 90 nM); test: PBM binding z-score (relative to random genomic background probes); higher = stronger binding; sequences stand for … in GC…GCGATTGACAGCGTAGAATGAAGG
PBM binding z-score values for the sequences below.
Just the number, please.

> print(dat)
                     polymer.sequence          result.type  assay.value
1  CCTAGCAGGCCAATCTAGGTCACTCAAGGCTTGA  PBM binding z-score      -0.0838
2  CCTTACGGGTCACGAGGTCATAGCACGACGAGCG  PBM binding z-score         2.06
3  AGAACGAGGTCACGCTGAGTTGATAGCAGAGTAG  PBM binding z-score         3.83
4  CATACAGGGTCGGCTAGGCCAGAGTAGGGACGGC  PBM binding z-score       -0.399
5  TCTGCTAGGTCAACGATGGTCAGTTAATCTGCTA  PBM binding z-score        0.247

Reported PBM binding z-score, sequence ACTTAGGGGTCAACGAGGTTATAGCACGCGTATA : ____
2.39

* * *

PBM binding z-score values for the sequences below.
tested on: LXRb:RXRa (NR concentration 270 nM, RXRa partner concentration 90 nM); assay: PBM binding z-score (relative to random genomic background probes); higher = stronger binding; sequences stand for … in GC…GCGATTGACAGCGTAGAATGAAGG
Just the number, please.

Known PBM binding z-score results, listed for orientation:
> print(dat)
                     polymer.sequence                       experimental.system  assay.value
1  CGTCAAAGTTCAACTAAGGTTACGTAAAGCACGC  LXRb:RXRa (NR concentration 270 nM, RXRa partner concentration 90 nM)          5.4
2  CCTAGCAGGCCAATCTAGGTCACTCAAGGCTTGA  LXRb:RXRa (NR concentration 270 nM, RXRa partner concentration 90 nM)         1.24

Reported PBM binding z-score, sequence TCTATTAGTTGATTAGGGCAACCGAAACAGCGGA : ____
0.544

Reported PBM binding z-score, sequence CGAACTAGGTCAAAGGACATTGAAAGGCGACGTA : ____
2.06

Reported PBM binding z-score, sequence AGAATGAGGTCATTAAGATCAGGGAATTGCGGTC : ____
4.71

Reported PBM binding z-score, sequence ATATGTAGGTTAGCTGAGGTCATTCAGACTAGGC : ____
4.72

Reported PBM binding z-score, sequence CCTTACGGGTCACTGACAGGTTATAGCGTTTGGA : ____
3.4

Reported PBM binding z-score, sequence TCTCGGAGGACACCAAAGGTCAGAGCTCGACATC : ____
3.46

Reported PBM binding z-score, sequence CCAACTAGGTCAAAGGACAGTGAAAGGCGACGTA : ____
1.91

Reported PBM binding z-score, sequence CCTACTGGGCCAAAGAGGTCATTGATGCCGATAA : ____
3.65

Reported PBM binding z-score, sequence CGCACTAGGTCATCCAGGACAGTGAATACATTGA : ____
2.21

Reported PBM binding z-score, sequence CGAACAAGGTCACCAGGACAGTGAAGAGGTTGGA : ____
4.28

* * *

test system: THRa homodimer (NR concentration 90 nM); experiment: PBM binding z-score (relative to random genomic background probes); higher = stronger binding; sequences stand for … in GC…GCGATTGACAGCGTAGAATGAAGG
Result type: PBM binding z-score
Just the number, please.

> print(dat)
                     polymer.sequence  assay.value
1  CCGAGTAGGTTACGAGGGGTCATTCAGTGCGAAT        0.607
2  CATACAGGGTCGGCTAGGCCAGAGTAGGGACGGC        -0.41
3  ATCGAAAGGTCCAAGGTGAGTATACCCACCCGAA        0.653

Checklist item: PBM binding z-score tested on THRa homodimer (NR concentration 90 nM), entry GGAACGAGGGCAAAGTTCATAGCATCTGTCGACG , value?
0.017

* * *

test system: PPARg:RXRa 90nM:30nM, anti-RXR (NR concentration 90 nM, RXRa partner concentration 30 nM); assay: PBM binding z-score (relative to random genomic background probes); higher = stronger binding; sequences stand for … in GC…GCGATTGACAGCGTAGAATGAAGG
PBM binding z-score values for the sequences below.
Just the number, please.

Known PBM binding z-score results, listed for orientation:
> print(dat)
                     polymer.sequence                       experimental.system          result.type  assay.value
1  ATCTCTAGGTTAAGATAGTTCAGTGAATGCAAAT  PPARg:RXRa 90nM:30nM, anti-RXR (NR concentration 90 nM, RXRa partner concentration 30 nM)  PBM binding z-score         1.15
2  CCTACTGGGCCAAAGGTGATTGATTCCAATGCTC  PPARg:RXRa 90nM:30nM, anti-RXR (NR concentration 90 nM, RXRa partner concentration 30 nM)  PBM binding z-score         8.66
3  TAGCCTAGGTCGTTCAGGGGCCAGTATAGAAAGC  PPARg:RXRa 90nM:30nM, anti-RXR (NR concentration 90 nM, RXRa partner concentration 30 nM)  PBM binding z-score       -0.218
4  TCTAGTTGGTCTAAGGTCACACACTCGAAATGCG  PPARg:RXRa 90nM:30nM, anti-RXR (NR concentration 90 nM, RXRa partner concentration 30 nM)  PBM binding z-score         6.57
5  CAAACAAGGTCACGAAAGGTCAAAGTCGAATGAC  PPARg:RXRa 90nM:30nM, anti-RXR (NR concentration 90 nM, RXRa partner concentration 30 nM)  PBM binding z-score         7.95

Please look at the following sequence next.
Checklist item: PBM binding z-score tested on PPARg:RXRa 90nM:30nM, anti-RXR (NR concentration 90 nM, RXRa partner concentration 30 nM), entry CGAACTAGGTCAAGGCCAGTGAATCTCCGCACGC , value?
6.13
